Biological target: N-type Ca2+ channel (Homo sapiens)
Sequence (Q00975 whole entry): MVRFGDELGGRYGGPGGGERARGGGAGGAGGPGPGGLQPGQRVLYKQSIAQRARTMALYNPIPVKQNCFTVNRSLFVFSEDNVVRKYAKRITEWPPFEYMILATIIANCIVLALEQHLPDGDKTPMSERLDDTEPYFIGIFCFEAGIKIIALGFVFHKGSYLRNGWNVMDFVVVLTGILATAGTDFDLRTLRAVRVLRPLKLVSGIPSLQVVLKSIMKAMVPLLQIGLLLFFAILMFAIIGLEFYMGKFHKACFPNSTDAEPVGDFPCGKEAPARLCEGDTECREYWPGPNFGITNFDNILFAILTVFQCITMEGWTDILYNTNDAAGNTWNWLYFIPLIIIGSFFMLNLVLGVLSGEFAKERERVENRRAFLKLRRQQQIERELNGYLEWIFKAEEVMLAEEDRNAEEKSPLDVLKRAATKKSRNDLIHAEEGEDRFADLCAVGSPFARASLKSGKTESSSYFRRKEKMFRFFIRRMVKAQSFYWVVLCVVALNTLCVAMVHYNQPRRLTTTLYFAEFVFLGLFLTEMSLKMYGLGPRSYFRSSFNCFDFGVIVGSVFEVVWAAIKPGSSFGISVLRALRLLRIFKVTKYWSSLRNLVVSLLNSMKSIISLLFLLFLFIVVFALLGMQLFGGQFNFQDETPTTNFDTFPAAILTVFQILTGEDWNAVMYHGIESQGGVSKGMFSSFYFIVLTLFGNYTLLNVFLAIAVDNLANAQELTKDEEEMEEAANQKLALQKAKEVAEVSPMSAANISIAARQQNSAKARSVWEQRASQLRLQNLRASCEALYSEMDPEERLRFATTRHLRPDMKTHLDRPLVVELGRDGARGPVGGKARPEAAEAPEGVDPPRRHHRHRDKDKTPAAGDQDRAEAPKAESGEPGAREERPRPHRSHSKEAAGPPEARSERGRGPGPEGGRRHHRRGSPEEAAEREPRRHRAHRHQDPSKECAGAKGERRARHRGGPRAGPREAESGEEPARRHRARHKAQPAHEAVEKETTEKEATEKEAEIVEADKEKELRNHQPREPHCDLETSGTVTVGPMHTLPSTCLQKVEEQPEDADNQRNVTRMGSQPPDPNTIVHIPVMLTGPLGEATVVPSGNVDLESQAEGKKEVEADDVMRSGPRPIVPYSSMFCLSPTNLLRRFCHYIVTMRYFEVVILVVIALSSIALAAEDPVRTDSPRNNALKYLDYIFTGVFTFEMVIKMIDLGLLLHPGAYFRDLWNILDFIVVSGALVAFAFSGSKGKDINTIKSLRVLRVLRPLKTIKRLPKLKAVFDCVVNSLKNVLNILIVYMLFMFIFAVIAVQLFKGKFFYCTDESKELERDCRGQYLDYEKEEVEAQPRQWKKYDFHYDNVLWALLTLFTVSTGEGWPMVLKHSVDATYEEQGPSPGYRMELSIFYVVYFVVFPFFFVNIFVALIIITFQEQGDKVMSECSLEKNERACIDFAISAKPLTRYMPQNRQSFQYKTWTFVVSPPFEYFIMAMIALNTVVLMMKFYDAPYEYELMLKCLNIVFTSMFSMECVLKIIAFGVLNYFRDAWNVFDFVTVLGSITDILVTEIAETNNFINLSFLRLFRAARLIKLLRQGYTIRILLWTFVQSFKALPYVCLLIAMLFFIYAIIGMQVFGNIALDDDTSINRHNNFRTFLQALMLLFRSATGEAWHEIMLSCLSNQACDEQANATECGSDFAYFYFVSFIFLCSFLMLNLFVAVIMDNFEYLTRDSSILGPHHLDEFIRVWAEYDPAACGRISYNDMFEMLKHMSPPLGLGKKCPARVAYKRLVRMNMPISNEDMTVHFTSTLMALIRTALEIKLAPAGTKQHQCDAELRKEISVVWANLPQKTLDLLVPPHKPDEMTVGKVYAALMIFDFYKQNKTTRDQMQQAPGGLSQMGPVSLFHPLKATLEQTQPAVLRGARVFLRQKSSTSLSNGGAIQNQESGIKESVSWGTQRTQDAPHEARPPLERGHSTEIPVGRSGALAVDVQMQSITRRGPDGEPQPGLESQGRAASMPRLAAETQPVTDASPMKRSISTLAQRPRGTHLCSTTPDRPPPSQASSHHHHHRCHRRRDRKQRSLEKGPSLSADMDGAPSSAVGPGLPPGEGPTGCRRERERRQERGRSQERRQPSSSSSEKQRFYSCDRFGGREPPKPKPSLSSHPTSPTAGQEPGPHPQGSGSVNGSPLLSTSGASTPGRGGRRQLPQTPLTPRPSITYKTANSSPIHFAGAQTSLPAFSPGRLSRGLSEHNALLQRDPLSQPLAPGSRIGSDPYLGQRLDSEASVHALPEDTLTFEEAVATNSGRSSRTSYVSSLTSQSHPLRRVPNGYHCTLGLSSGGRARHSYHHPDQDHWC
Sequence (P54289 25-956 partner limits assumed): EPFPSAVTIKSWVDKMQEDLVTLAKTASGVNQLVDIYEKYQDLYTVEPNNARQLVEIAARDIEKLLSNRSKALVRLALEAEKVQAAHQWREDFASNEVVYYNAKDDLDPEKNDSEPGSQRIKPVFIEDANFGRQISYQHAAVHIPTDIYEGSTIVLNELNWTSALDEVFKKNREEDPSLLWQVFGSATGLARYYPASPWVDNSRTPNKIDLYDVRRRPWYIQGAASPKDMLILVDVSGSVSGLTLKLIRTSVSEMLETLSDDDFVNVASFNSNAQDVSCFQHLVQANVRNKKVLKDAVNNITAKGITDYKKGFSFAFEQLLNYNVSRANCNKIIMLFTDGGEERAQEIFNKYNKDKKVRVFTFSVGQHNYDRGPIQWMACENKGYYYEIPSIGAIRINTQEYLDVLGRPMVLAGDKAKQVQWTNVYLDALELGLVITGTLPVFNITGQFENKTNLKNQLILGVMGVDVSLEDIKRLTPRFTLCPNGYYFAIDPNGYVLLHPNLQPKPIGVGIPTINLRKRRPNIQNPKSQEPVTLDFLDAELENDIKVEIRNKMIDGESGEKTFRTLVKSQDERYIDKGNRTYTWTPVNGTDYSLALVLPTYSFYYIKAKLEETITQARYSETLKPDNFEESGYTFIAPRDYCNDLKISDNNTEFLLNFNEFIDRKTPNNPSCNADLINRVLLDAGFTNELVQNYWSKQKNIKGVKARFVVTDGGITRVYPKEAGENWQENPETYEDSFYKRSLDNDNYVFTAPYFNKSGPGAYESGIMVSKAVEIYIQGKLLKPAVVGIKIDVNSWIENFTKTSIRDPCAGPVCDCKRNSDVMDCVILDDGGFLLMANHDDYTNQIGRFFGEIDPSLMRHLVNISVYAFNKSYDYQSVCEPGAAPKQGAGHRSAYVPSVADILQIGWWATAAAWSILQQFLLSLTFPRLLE
Sequence (P54289 957-1103 partner limits assumed): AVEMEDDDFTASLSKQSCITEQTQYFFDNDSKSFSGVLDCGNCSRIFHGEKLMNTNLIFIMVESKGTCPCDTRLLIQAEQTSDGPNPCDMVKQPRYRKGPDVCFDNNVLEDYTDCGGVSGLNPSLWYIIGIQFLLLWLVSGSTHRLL
Sequence (Q02641 whole entry partner): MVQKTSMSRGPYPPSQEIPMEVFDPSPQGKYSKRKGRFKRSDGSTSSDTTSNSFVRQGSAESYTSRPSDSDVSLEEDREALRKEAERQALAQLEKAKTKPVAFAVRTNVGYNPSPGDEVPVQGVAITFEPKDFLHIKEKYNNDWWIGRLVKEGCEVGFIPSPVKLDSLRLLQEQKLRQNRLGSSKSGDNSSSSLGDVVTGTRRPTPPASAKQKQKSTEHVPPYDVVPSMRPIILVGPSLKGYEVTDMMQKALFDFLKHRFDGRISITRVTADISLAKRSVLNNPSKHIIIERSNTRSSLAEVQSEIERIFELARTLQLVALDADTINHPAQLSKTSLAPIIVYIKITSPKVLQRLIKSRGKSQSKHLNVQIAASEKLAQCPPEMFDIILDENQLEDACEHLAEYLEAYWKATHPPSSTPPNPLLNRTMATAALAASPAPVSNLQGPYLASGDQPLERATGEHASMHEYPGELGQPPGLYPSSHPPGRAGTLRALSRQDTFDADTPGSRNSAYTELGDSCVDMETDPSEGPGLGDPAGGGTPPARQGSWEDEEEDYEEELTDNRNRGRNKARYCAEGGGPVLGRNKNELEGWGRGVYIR
Test: Measurement of N-type Ca2+ channel blocking potencies in IMR-32 cells using the fluorescent Ca2+ indicator Indo-1
Conditions: K+-stimulated Ca2+ flux, 5 μM nitrendipine to block L-type channels
OUTCOME MEASURE: IC50
Note: state the figure and append the unit.

Use these answered entries as a reference point.
> print(dat)
                                   compound  endpoint.value
1  CC(C)=CCN(c1ccc(OCc2ccccc2)cc1)C1CCN(C(=O)[C@H](CC(C)C)NC(C)C)CC1          750 nM
2  CC(C)=CCN(c1ccc(C#CC2(O)CCCCC2)cc1)C1CCN(C(=O)C(CC(C)C)NC(=O)N2CCCCCC2)CC1 (stereo in doubt)         3400 nM
3  CC(C)CCN(c1ccc(NCc2ccc(N(C)C)cc2)cc1)C1CCN(C(=O)[C@H](CC(C)C)NC(=O)N2CCCCCC2)CC1          490 nM

According to the records, this compound CC(C)=CCN(CC(C)(C)NC(=O)[C@H](CC(C)C)N(C)Cc1ccc(C(C)(C)C)cc1)c1ccc(OCc2ccccc2)cc1 displays IC50 of 5600 nM

According to the records, this compound CC(C)=CCN(c1ccc(OCc2ccccc2)cc1)C1CCN(C(=O)[C@H](CC(C)C)N(C)C)CC1 displays IC50 of 650 nM

According to the records, this compound CCN(c1ccc(OCc2ccccc2)cc1)C1CCN(C(=O)[C@H](CC(C)C)NC(=O)N2CCCCCC2)CC1 displays IC50 of 830 nM
